Values were extracted from patent US20160297884A1.

# target or system: T1, Cynomolgus monkey BCMA (cynomolgus monkey)
# T1 construct: Soluble analyte in SPR; also called cyBCMA; Cyno BCMA
# test name: SPR, IgG immobilised, cyno BCMA analyte
So basically, if koff comes in under 0.002 s⁻¹ it's yes (1), and if it's 0.002 s⁻¹ or more it's no (0).

Previously resolved entries follow.
• A02_Rd4_6nM_C10 (antibody, V domains shown, IgG) VH: EVQLLESGGGLVQPGGSLRLSCAASGFTFSSYAMNWVRQAPGKGLEWVSAISDSGGSCWYADSVKGRFTISRDNSKNTLYLQMNSLRAEDTAVYYCARYWPMTPWGQGTLVTVSS VL: EIVLTQSPGTLSLSPGERATLSCRASQSVEMSYLAWYQQKPGQAPRLLMYDASIRATGIPDRFSGSGSGTDFTLTISRLEPEDFAVYYCQQYAHWPLTFGQGTKVEIK = yes (1)
• C01_Rd4_0.6nM_C03 (antibody, V domains shown, IgG) VH: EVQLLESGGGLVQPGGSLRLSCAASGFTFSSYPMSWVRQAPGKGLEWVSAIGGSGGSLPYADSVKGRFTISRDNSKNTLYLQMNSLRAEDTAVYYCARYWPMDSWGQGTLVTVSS VL: EIVLTQSPGTLSLSPGERATLSCRASCDVSSTYLAWYQQKPGQAPRLLIYDASSRAPGIPDRFSGSGSGTDFTLTISRLEPEDFAVYYCQQYMRSPLTFGQGTKVEIK = no (0)
• A02_Rd4_0.6nM_C06 (antibody, V domains shown, IgG) VH: EVQLLESGGGLVQPGGSLRLSCAASGFTFSSYAMNWVRQAPGKGLEWVSAISDSGGSAWYADSVKGRFTISRDNSKNTLYLQMNSLRAEDTAVYYCARYWPMSLWGQGTLVTVSS VL: EIVLTQSPGTLSLSPGERATLSCRASQSVSVLYLAWYQQKPGQAPRLLMYDASIRATGIPDRFSGSGSGTDFTLTISRLEPEDFAVYYCQQYQRWPLTFGQGTKVEIK = yes (1)
• COMBO_Rd4_0.6nM_C05 (antibody, V domains shown, IgG) VH: EVQLLESGGGLVQPGGSLRLSCAASGFTFSSYAMNWVRQAPGKGLEWVSAIGGSGGSTYYADSVKGRFTISRDNSKNTLYLQMNSLRAEDTAVYYCARYWPMSLWGQGTLVTVSS VL: EIVLTQSPGTLSLSPGERATLSCRASQSVSSTYLAWYQQKPGQAPRLLMYDASIRATGIPDRFSGSGSGTDFTLTISRLEPEDFAVYYCQQYMSWPLTFGQGTKVEIK = yes (1)

Q. Given COMBO_Rd4_0.6nM_C29 (antibody, V domains shown, IgG) VH: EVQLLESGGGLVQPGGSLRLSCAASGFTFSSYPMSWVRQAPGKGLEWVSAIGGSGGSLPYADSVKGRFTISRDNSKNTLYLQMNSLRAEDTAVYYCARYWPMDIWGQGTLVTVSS VL: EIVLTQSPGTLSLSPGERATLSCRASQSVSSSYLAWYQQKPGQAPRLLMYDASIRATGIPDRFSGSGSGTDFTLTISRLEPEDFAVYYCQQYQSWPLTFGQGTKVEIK , is recorded koff strictly lower than 0.002 s⁻¹?
A. yes (1)

Q. Given the entry P5A2_VHVL (antibody, V domains shown, IgG) VH: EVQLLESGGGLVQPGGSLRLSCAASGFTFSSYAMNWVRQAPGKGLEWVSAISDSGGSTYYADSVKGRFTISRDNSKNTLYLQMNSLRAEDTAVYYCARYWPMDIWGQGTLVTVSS VL: EIVLTQSPGTLSLSPGERATLSCRASQSVSSSYLAWYQQKPGQAPRLLMYDASIRATGIPDRFSGSGSGTDFTLTISRLEPEDFAVYYCQQYGSWPLTFGQGTKVEIK , would its reported koff be below 0.002 s⁻¹?
A. no (0)

Q. State whether 0.002 s⁻¹ exceeds koff recorded for P5C1_VHVL (antibody, V domains shown, IgG; also called PC1) VH: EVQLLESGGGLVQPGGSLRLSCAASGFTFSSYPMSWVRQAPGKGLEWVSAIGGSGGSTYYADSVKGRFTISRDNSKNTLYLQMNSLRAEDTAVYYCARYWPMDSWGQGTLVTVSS VL: EIVLTQSPGTLSLSPGERATLSCRASQSVSSTYLAWYQQKPGQAPRLLIYDASSRAPGIPDRFSGSGSGTDFTLTISRLEPEDFAVYYCQQYSTSPLTFGQGTKVEIK .
A. no (0)
